Molecular target: β-glucosidase from almonds
Assay: Glycosidase inhibition, p-nitrophenolate assay
Details: mean of triplicate experiments, n.a. = no activity
pKi: −log10 of the molar value.

>  <Molecule>
OCCN1C[C@H](O)[C@@H](O)[C@H](O)[C@H]1CO [Miglitol, reference compound]

>  <pKi>
6.68

$$$$
>  <Molecule>
CCCO[C@@H]1O[C@H](CN)[C@@H](O)[C@H](O)C1(F)F

>  <pKi>
5.75

$$$$

---

Target: β-galactosidase from E. coli (Escherichia coli, UniProt P00722)
Sequence (P00722 2-1024 limits assumed): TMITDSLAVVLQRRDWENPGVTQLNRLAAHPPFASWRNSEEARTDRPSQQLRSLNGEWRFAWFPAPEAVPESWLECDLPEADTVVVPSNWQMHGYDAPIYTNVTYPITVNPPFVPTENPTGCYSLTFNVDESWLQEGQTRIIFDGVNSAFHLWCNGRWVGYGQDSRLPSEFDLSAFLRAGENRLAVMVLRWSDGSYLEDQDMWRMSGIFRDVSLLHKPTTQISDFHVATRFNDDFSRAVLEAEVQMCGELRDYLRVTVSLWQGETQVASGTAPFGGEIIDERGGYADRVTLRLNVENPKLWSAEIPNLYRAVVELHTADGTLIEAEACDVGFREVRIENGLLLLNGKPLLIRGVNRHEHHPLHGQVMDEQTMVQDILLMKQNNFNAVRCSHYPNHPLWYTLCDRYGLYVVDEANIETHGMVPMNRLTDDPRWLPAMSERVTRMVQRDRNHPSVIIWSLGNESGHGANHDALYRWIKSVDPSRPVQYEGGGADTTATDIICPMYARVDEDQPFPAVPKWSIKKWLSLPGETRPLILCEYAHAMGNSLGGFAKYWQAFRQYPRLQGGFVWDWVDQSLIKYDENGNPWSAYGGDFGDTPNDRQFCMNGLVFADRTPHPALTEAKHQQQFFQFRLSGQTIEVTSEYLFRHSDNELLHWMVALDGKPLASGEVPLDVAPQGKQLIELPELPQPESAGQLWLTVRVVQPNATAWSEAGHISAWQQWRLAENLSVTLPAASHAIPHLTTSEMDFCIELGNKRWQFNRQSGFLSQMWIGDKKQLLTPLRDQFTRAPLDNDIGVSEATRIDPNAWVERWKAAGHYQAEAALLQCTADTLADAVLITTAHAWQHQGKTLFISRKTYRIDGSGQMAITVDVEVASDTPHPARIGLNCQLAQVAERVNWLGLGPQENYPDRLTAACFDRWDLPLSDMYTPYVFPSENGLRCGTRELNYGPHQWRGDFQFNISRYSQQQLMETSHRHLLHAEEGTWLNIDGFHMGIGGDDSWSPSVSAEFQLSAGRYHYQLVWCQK
pKi: −log10 of the molar value.

>  <Compound>
OCCN1C[C@H](O)[C@@H](O)[C@H](O)[C@H]1CO [Miglitol, reference compound]

>  <Test target>
β-galactosidase from E. coli (Escherichia coli, UniProt P00722)

>  <pKi>
6.80

$$$$
>  <Compound>
CCCO[C@@H]1O[C@H](CN)[C@@H](O)C(F)(F)[C@H]1O

>  <Test target>
β-galactosidase from E. coli (Escherichia coli, UniProt P00722)

>  <pKi>
5.67

$$$$
>  <Compound>
CCCO[C@@H]1O[C@H](CN)[C@@H](O)[C@H](O)C1(F)F

>  <Test target>
β-galactosidase from E. coli (Escherichia coli, UniProt P00722)

>  <pKi>
6.30

$$$$

---

Below: a set of entries, each annotated with reported EC50 at 3 days.
Experiment: Cytotoxicity, sulforhodamine B (SRB) assay, nonmalignant cells
Format: cell-based, mouse
Conditions: mouse, NIH 3T3 fibroblasts (nonmalignant); as restated in the conclusion; NIH 3T3; read-out: EC50, cytotoxicity (SRB assays)

>  <Molecule>
CCCO[C@@H]1O[C@H](CN)[C@@H](O)[C@H](O)C1(F)F [compound 8]

>  <EC50 at 3 days>
> 50 µM

$$$$
>  <Molecule>
CCCO[C@@H]1O[C@H](CN)[C@@H](O)C(F)(F)[C@H]1O [compound 16]

>  <EC50 at 3 days>
> 50 µM

$$$$

---

Test: Cytotoxicity, sulforhodamine B (SRB) assay, nonmalignant cells
Type: cell-based, mouse
Details: NIH 3T3 fibroblasts (nonmalignant); nonmalignant NIH 3T3 mouse fibroblasts; no significant cytotoxicity
Observation type: IC50 at 3 days

>  <Entry smiles>
CCCO[C@@H]1O[C@H](CN)[C@@H](O)[C@H](O)C1(F)F

>  <Result>
> 50 µM

$$$$
>  <Entry smiles>
CCCO[C@@H]1O[C@H](CN)[C@@H](O)C(F)(F)[C@H]1O

>  <Result>
> 50 µM

$$$$

---

Molecular target: α-glucosidase from Baker’s yeast (Saccharomyces cerevisiae)
Construct: purchased
Sequence (P53341 whole entry): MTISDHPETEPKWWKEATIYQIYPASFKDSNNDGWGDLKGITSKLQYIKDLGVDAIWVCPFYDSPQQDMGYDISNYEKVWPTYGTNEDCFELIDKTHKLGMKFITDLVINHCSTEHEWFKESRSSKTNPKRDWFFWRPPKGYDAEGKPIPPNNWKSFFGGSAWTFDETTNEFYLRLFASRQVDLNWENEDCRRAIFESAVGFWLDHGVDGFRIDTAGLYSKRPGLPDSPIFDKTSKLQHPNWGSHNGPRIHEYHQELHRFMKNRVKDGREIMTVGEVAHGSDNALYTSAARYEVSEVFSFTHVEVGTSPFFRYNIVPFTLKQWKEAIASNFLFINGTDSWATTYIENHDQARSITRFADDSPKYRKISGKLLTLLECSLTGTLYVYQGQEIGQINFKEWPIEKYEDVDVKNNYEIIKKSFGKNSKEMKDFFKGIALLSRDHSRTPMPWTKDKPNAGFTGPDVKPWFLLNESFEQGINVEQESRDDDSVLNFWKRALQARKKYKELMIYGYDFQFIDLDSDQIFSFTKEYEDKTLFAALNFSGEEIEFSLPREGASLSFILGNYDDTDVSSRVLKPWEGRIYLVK
Test: Glycosidase inhibition, p-nitrophenolate assay
Assay type: biochemical
Method: An in vitro evaluation of these compounds to act as an enzyme inhibitor using a panel of commercially available glycosidases was performed (Table 1) using p-nitrophenolate assays. The corresponding p-nitrophenyl glycoside and the inhibitors were dissolved in NaOAc buffer (0.05 M, pH = 6.0) reaching final concentrations of 1.0, 1.11, 1.25, 1.43, 1.67, 2.0, 2.5, 3.33, 5.0, and 10 mM. Further dilutions (if necessary) were made in the ratios 1:60, 1:50, 1:40, 1:30, 1:20, 1:10, and 1:5. […]

>  <Compound>
OCCN1C[C@H](O)[C@@H](O)[C@H](O)[C@H]1CO [Miglitol, reference compound]

>  <Unit abbrev>
µM

>  <Ki>
9.92

$$$$
